The measurements presented in this section are drawn from patent US11713338B2.

Target: recombinant integrin α4β7 (Homo sapiens, UniProt P13612+P26010, DEL724-798)
Construct: purchased R&D Systems 5397-A3-050
Sequence (P13612 34-970 limits assumed, stated change not applied): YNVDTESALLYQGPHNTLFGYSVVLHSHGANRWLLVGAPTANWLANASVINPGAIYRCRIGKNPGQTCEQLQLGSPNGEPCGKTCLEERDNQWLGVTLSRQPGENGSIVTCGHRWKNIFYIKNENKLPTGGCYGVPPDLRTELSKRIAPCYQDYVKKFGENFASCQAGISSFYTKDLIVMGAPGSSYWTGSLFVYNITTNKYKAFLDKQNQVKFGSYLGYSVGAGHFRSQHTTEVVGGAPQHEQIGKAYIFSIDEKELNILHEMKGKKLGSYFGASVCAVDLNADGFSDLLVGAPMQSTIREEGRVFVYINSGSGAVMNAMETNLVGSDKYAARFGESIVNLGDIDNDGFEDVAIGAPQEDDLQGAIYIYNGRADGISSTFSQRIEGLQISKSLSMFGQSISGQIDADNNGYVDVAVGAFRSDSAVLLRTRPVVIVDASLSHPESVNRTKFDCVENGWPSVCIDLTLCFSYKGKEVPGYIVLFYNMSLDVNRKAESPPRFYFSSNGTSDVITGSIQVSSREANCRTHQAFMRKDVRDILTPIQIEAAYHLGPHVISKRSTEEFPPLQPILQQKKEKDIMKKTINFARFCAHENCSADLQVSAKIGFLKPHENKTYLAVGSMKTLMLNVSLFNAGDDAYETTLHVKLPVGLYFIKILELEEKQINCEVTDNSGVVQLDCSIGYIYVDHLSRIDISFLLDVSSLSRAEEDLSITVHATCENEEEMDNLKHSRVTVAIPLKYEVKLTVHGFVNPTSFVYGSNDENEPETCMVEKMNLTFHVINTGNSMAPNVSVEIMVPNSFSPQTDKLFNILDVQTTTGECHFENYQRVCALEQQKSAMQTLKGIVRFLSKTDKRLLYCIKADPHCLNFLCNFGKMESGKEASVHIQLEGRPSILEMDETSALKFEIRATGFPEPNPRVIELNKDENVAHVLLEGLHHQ
Sequence (P26010 20-723 limits assumed, stated change not applied): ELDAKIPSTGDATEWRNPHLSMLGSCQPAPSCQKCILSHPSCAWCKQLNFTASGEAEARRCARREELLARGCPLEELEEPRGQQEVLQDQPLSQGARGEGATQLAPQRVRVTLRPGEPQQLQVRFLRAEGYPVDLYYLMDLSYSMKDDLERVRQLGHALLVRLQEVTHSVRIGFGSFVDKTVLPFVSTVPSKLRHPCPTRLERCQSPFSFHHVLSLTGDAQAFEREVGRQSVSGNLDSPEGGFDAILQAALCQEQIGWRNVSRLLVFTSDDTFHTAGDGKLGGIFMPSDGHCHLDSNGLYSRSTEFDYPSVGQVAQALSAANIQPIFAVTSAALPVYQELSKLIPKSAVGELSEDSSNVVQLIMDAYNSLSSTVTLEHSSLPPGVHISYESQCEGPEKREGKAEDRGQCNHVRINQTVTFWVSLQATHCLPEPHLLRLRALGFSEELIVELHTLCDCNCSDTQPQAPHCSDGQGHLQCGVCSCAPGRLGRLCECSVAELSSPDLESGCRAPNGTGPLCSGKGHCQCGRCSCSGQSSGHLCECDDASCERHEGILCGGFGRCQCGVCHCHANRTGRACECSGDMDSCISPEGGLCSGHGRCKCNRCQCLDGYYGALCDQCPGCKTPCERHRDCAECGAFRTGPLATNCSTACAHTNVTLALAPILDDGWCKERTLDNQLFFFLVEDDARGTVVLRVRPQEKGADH
Experiment: Integrin α4β7—MAdCAM-1 ELISA competition assay
Type: binding
Conditions: ratio of a4b1 to a4b7 ELISA IC50
ELISA Assay Ratio b1/b7 by entry:
property name: ELISA Assay Ratio b1/b7

- CC(C)C[C@@H]1NC(=O)C[C@H](CCCCN)NC(=O)[C@H](Cc2ccc(CN)cc2)NC(=O)[C@@H]2CCCN2[C@H](C(=O)NC(C)(C)C)[C@H](C)NC(=O)[C@H](C(C)C)NC(=O)[C@H](CC(=O)O)NC1=O: 33.0
- CC(C)C[C@@H]1NC(=O)[C@H]2C[C@H](O)CN2C(=O)[C@H](Cc2ccc(O)cc2)NC(=O)[C@@H]2CCCN2[C@H](C(=O)NC(C)(C)C)[C@H](C)NC(=O)[C@H]([C@@H](C)O)NC(=O)[C@H](CC(=O)O)NC1=O: 9.6
- CC(C)C[C@@H]1NC(=O)[C@H]2CCCCN2C(=O)[C@H](Cc2cccc3ccccc23)NC(=O)[C@@H]2CCCN2[C@H](C(=O)NC(C)(C)C)[C@H](C)NC(=O)[C@H]([C@@H](C)O)NC(=O)[C@H](CC(=O)O)NC1=O: 2.1
- COc1ccccc1-c1ccccc1C[C@@H]1NC(=O)[C@@H]2CCCN2[C@H](C(=O)NC(C)(C)C)[C@H](C)NC(=O)[C@H]([C@@H](C)O)NC(=O)[C@H](CC(=O)O)NC(=O)[C@H](CC(C)C)NC(=O)[C@H]2CCCCN2C1=O: 4.9

---

Target: integrin α4β7 (RPMI8866 human cells adhering to MAdCAM-1) (Homo sapiens, UniProt P13612+P26010)
Construct: RMP18866 cells, which express integrin α4β7; host or cells: RPMI8866
Sequence (P13612 34-1032): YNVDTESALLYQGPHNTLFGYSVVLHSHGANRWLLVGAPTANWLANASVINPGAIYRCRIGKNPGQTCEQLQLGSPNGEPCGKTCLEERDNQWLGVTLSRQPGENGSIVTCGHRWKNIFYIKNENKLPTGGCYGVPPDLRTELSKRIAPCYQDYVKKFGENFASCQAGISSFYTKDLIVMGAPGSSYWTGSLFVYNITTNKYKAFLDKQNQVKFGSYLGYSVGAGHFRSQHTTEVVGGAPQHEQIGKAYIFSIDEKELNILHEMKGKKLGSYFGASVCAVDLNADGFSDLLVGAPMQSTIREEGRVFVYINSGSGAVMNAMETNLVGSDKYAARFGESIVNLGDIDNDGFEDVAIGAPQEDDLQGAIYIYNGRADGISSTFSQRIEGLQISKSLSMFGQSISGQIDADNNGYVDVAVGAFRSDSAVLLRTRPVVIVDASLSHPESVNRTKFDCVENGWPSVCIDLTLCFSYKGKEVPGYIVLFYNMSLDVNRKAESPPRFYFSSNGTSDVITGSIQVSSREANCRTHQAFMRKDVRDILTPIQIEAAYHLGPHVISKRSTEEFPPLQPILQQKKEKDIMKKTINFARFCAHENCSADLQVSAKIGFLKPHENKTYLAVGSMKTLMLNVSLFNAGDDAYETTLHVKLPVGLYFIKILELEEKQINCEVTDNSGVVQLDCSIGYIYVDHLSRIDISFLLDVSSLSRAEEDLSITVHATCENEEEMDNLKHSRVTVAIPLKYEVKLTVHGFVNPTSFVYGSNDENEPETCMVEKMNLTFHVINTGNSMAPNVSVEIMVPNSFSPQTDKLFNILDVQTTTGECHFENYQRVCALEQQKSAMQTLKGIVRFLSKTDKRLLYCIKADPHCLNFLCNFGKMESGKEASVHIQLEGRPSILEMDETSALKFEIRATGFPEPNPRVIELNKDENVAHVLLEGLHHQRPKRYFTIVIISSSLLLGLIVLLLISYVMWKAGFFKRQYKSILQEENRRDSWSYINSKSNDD
Sequence (P26010 20-798): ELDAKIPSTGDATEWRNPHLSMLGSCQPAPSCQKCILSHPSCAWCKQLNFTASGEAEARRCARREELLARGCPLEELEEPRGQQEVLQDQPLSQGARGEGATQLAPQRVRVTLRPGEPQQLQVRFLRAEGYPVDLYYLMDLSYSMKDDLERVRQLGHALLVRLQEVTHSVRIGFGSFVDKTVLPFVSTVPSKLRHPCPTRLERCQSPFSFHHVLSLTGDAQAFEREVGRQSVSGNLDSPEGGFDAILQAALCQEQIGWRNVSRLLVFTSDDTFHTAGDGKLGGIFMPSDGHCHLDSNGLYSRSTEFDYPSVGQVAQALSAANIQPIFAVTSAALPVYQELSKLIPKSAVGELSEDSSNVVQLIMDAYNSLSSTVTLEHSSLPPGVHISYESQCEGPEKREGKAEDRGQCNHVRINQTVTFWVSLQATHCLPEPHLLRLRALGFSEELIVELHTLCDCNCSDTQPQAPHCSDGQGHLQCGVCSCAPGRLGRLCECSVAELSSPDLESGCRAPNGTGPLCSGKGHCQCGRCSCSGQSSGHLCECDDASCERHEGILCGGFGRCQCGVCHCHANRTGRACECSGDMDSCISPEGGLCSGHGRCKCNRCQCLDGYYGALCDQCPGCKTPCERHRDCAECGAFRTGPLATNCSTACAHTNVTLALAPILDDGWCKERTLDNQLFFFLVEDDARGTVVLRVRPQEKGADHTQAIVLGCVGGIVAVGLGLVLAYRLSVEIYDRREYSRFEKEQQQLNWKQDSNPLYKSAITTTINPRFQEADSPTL
Experiment: Integrin α4β7-MAdCAM cell adhesion assay (RPMI8866 cells)
Format: cell-based
Conditions: RPMI8866 cells adhering to MAdCAM; read-out: RPMI8866 Adhesion α4β7/MAdCAM IC50
pIC50: −log10 of the molar value.
property name: pIC50

* CC(C)C[C@@H]1NC(=O)c2ccc(-c3ccc(N4CCN(C(=O)CCCCCCCC(=O)N5CCN(c6ccc(-c7ccc8cc7CNC(=O)[C@@H]7CCCN7[C@H](C(=O)NC(C)(C)C)[C@H](C)NC(=O)[C@H]([C@@H](C)O)NC(=O)[C@H](CC(=O)O)NC(=O)[C@H](CC(C)C)NC8=O)cc6)CC5)CC4)cc3)c(c2)CNC(=O)[C@@H]2CCCN2[C@H](C(=O)NC(C)(C)C)[C@H](C)NC(=O)[C@H]([C@@H](C)O)NC(=O)[C@H](CC(=O)O)NC1=O | 7.47

---

Molecular target: integrin α4β7 (RPMI8866 human cells adhering to MAdCAM-1) (Homo sapiens, UniProt P13612+P26010)
Construct: RMP18866 cells, which express integrin α4β7; host or cells: RPMI8866
Assay: Integrin α4β7-MAdCAM cell adhesion assay (RPMI8866 cells)
Type: cell-based
Conditions: RPMI8866 cells adhering to MAdCAM; read-out: RPMI8866 Adhesion α4β7/MAdCAM IC50
property name: IC50

* CC(C)C[C@@H]1NC(=O)c2ccc(-c3ccc(N4CCN(C(=O)COCCOCCOCC(=O)N5CCN(c6ccc(-c7ccc8cc7CNC(=O)[C@@H]7CCCN7[C@H](C(=O)NC(C)(C)C)[C@H](C)NC(=O)[C@H]([C@@H](C)O)NC(=O)[C@H](CC(=O)O)NC(=O)[C@H](CC(C)C)NC8=O)cc6)CC5)CC4)cc3)c(c2)CNC(=O)[C@@H]2CCCN2[C@H](C(=O)NC(C)(C)C)[C@H](C)NC(=O)[C@H]([C@@H](C)O)NC(=O)[C@H](CC(=O)O)NC1=O | 0.046 µM
